Catalogue of melting point values

# COMPOUND, melting point
records = [
    ("Cc1cc(CC(=O)Nc2ccc(S(N)(=O)=O)cc2Cl)cc(Oc2cc(C#N)ccc2Cl)c1 [Compound I-148]", "212.9 to 214.4 °C"),
    ("COc1ccc(CC(=O)Nc2ccc(S(N)(=O)=O)cc2C)cc1Oc1cc(Cl)cc(C#N)c1 [Compound I-73]", "222.3 to 224.3 °C"),
    ("O=C(Cc1ccc(Cl)c(Sc2cc(Cl)ccc2Br)c1)Nc1ccccc1Cl [Compound I-244]", "172.2 to 172.8 °C"),
    ("Cc1cc(N2CCCS2(=O)=O)ccc1NC(=O)Cc1ccc(C)c(Oc2cc(Cl)cc(C#N)c2)c1 [Compound I-170]", "182.5 to 184.6 °C"),
    ("CCC(=O)N(C)S(=O)(=O)c1ccc(NC(=O)Cc2ccc(Cl)c(Oc3cc(Cl)cc(C#N)c3)c2F)c(Cl)c1 [Compound I-162]", "198.2 to 200.6 °C"),
    ("Cc1cc(CC(=O)Nc2ccc(S(N)(=O)=O)cc2C)cc(C(=O)c2ccccc2Cl)c1 [Compound I-256]", "207.7 to 209.3 °C"),
    ("Cc1cc(S(=O)(=O)CCC(=O)O)ccc1NC(=O)Cc1ccc(C)c(Oc2cc(Cl)cc(C#N)c2)c1 [Compound I-125]", "74.3 to 76.5 °C"),
]

---

REPORTED_PROPERTY: melting point

# SMILES_STRING, RESULT
measured = [
    ("Cc1cc(S(N)(=O)=O)ccc1NC(=O)Cc1ccc(Cl)c(Oc2c(C)cc(C#N)cc2C)c1", "232.1 to 234.6 °C"),
    ("Cl.N#Cc1cc(Cl)cc(Oc2c(Cl)ccc(CC(=O)Nc3ccc(S(=O)(=O)NC(=O)CN4CCOCC4)cc3Cl)c2F)c1", "223.3 to 225 °C"),
    ("CCc1ccc(CC(=O)Nc2ccc(S(N)(=O)=O)cc2C)cc1Oc1cc(C#N)cc(C#N)c1Cl", "199.4 to 205.3 °C"),
    ("Cc1cc(CC(=O)Nc2ccc(S(N)(=O)=O)cc2Cl)cc(Oc2cc(Cl)cc(C#N)c2)c1", "194.1 to 195.9 °C"),
    ("Cl.N#Cc1cc(Cl)cc(Oc2c(Cl)ccc(CC(=O)Nc3ccc(S(=O)(=O)NC(=O)CCN)cc3Cl)c2F)c1", "199.3 to 199.6 °C"),
    ("COc1ccc(CC(=O)Nc2ccccc2Cl)cc1Oc1cc(C#N)ccc1Cl", "194 to 197.8 °C"),
    ("Cc1cc(S(N)(=O)=O)ccc1NC(=O)Cc1ccc(C)c(Oc2cc(C#N)cc(C(F)F)c2)c1F", "218 to 220.4 °C"),
    ("CCC(=O)NS(=O)(=O)c1ccc(NC(=O)Cc2ccc(Cl)c(Oc3cc(Cl)cc(C#N)c3)c2F)c(Cl)c1.[Na]", "155.4 to 157.5 °C"),
]

---

Catalogue of melting point values
REPORTED_PROPERTY: melting point

# SMILES_STRING, RESULT
measured = [
    ("CCN(CC)CC(=O)NS(=O)(=O)c1ccc(NC(=O)Cc2ccc(Cl)c(Oc3cc(Cl)cc(C#N)c3)c2F)c(Cl)c1.Cl", "195.3 to 197.2 °C"),
    ("CCc1ccc(CC(=O)Nc2ccccc2)cc1Oc1cc(C#N)cc(C#N)c1Cl", "189.3 to 192.3 °C"),
    ("Cc1cc(S(=O)(=O)NC(=O)c2cccnc2)ccc1NC(=O)Cc1ccc(Cl)c(Oc2cc(Cl)cc(C#N)c2)c1F.Cl", "261.8 to 263.6 °C"),
    ("CCc1ccc(CC(=O)Nc2ccccc2Cl)cc1Oc1cc(Cl)cc(Br)c1", "119.9 to 122.2 °C"),
]

Values compiled from patent US8329755B2.
